Tested on: P. falciparum strain F32
EXPERIMENT DESCRIPTION: Anti-Plasmodium activity, strain F32
Format: cell-based
Description: P. falciparum strains (FcB1/Colombia, K1/Thailand, F32/Tanzania, W2/Indochina) were maintained in continuous culture on human erythrocytes in RPMI medium containing 7% (v/v) heat-inactivated human serum under an atmosphere of 3% CO2, 6% O2, 91% N2, at 37°C, as described by Trager and Jensen. Parasite synchronization was performed successively by treatment with 5% (w/v) sorbitol and by concentration in gelatin solution as previously described. […]
pIC50: −log10 of the molar value.
OBSERVED PROPERTY: pIC50

>  <SMILES STRING>
CCCCCCCCCCCCCCN[C@H](CO)[C@H](O)c1ccc([N+](=O)[O-])cc1

>  <OBSERVED PROPERTY>
pIC50

>  <EXPERIMENTAL VALUE>
7.68

$$$$

* * *

Item-by-item account of IC50
Tested on: chloroquine-resistant strain FcB1 of P. falciparum
EXPERIMENT DESCRIPTION: Anti-Plasmodium activity, [3H]hypoxanthine microdilution on asynchronous cultures
Type: cell-based, Plasmodium falciparum
SETTINGS: Plasmodium falciparum; Figure 3, series B (methylene or thiourea linkage); strain FcB1; read-out: CI50 (the source's name)

>  <SMILES STRING>
CCN[C@H](CO)[C@H](O)c1ccc([N+](=O)[O-])cc1

>  <IC50>
> 33 µM

$$$$
>  <SMILES STRING>
CCCCCCCCCCCCCCCCCCCCN[C@H](CO)[C@H](O)c1ccc([N+](=O)[O-])cc1

>  <IC50>
> 200 µM

$$$$
>  <SMILES STRING>
CCNC(=S)N[C@H](CO)[C@H](O)c1ccc([N+](=O)[O-])cc1

>  <IC50>
> 50 µM

$$$$
>  <SMILES STRING>
CCCCCCCCCCCCNc1ccc([C@@H](O)[C@@H](CO)NCCCCCCCCCCCC)cc1

>  <IC50>
3.25 µM

$$$$
>  <SMILES STRING>
CCCCCCNc1ccc([C@@H](O)[C@@H](CO)NCCCCCC)cc1

>  <IC50>
0.0857 µM

$$$$
>  <SMILES STRING>
CCCCCCCCCCCCCCN[C@H](CO)[C@H](O)c1ccc(NC(=O)CCCCC)cc1

>  <IC50>
3.3 µM

$$$$

* * *

Test system: chloroquine-resistant strain FcB1 of P. falciparum
EXPERIMENT DESCRIPTION: Anti-Plasmodium activity, [3H]hypoxanthine microdilution on asynchronous cultures
Type: cell-based, Plasmodium falciparum
SETTINGS: Plasmodium falciparum, 48 h; Figure 2, series A (amide linkage); strain FcB1; 90% growth inhibition; read-out: CI90 (the source's name)

>  <SMILES STRING>
CCCCCCCCCCCC(=O)Nc1ccc([C@@H](O)[C@@H](CO)NC(=O)CCC)cc1

>  <TARGET ENTITY>
chloroquine-resistant strain FcB1 of P. falciparum

>  <IC90>
> 100 µM

$$$$
>  <SMILES STRING>
CCCCCCCC(=O)N[C@@H](CO)[C@@H](O)c1ccc([N+](=O)[O-])cc1

>  <TARGET ENTITY>
chloroquine-resistant strain FcB1 of P. falciparum

>  <IC90>
> 100 µM

$$$$
>  <SMILES STRING>
CCCCCCCC(=O)Nc1ccc([C@@H](O)[C@@H](CO)NC(=O)CCC)cc1

>  <TARGET ENTITY>
chloroquine-resistant strain FcB1 of P. falciparum

>  <IC90>
> 100 µM

$$$$

Origin of values: paper PMC539285
